Tested on: P-Akt (S473)
Experimental Protocol: Cell based AlphaLISA assay, inhibition of P-Akt (S473) (mTORC2 substrate phosphorylation) in MDA-MB-468 cells
Condition Info: Homo sapiens, MDA-MB-468, 4 h, AlphaLISA, two to four hours at 37° C., read-out: pIC50 for Inhibition of mTORC1 and mTORC2 Substrate Phosphorylation, p-AKT 1/2/3 -(S473) (converted)
Method: Cell Based AlphaLISA Assays for Determining IC50 for Inhibition of P-Akt (S473), P-4E-BP1 (T37/46), and P-P70S6K (T389) in MDA-MB-468 Cells mTOR Kinase Cellular Assay To measure functional activity of mTORC1 and mTORC2 in cells the phosphorylation of 4EBP1 (Thr37/46) and P70S6K (Thr389), and AKT1/2/3 (Ser473) was monitored using AlphaLisa SureFire Ultra Kits (Perkin Elmer). […] Incubations were terminated by removal of the assay buffer and addition of lysis buffer provided with the assay kit. […]
Reported Metric: IC50

>>> result("CO[C@H]1C[C@@H]2CC[C@@H](C)[C@@](O)(O2)C(=O)C(=O)N2CCCC[C@H]2C(=O)O[C@H]([C@H](C)C[C@@H]2CC[C@@H](O)[C@H](OC)C2)C[C@@H](O)[C@H](C)/C=C(\\C)[C@@H](O)[C@@H](OC)C(=NOCc2cn(-c3cnc(N4CCN(c5ncc(C(=O)NCCOCCC(=O)NCCCCn6nc(-c7ccc8oc(N)nc8c7)c7c(N)ncnc76)cn5)CC4CO)nc3)nn2)[C@H](C)C[C@H](C)/C=C/C=C/C=C/1C (some centres unmarked)")
"> 1000 nM"
>>> result("CCO[C@@H]1C[C@@H]([C@H](C)C[C@@H]2CC[C@@H](O)[C@H](OC)C2)OC(=O)[C@@H]2CCCCN2C(=O)C(=O)[C@]2(O)O[C@@H](CC[C@H]2C)C[C@H](OC)/C(C)=C/C=C/C=C/[C@@H](C)C[C@@H](C)C(=NOCc2cn(CCOCCOCCOCCOCCOCCOCCC(=O)NCCCCn3nc(-c4ccc5oc(N)nc5c4)c4c(N)ncnc43)nn2)[C@H](OC)[C@H](O)/C(C)=C/[C@H]1C")
"31.6 to 1000 nM"
>>> result("CO[C@H]1C[C@@H]2CC[C@@H](C)[C@@](O)(O2)C(=O)C(=O)N2CCCC[C@H]2C(=O)O[C@H]([C@H](C)C[C@@H]2CC[C@@H](OCCCCc3cn(CCOCCOCCOCCOCCOCCOCCC(=O)N4CCC(Cn5nc(-c6ccc7oc(N)nc7c6)c6c(N)ncnc65)CC4)nn3)[C@H](OC)C2)CC(=O)[C@H](C)/C=C(\\C)[C@@H](O)[C@@H](OC)C(=O)[C@H](C)C[C@H](C)/C=C/C=C/C=C/1C")
"< 3.16 nM"
>>> result("CO[C@H]1C[C@@H]2CC[C@@H](C)[C@@](O)(O2)C(=O)C(=O)N2CCCC[C@H]2C(=O)O[C@H]([C@H](C)C[C@@H]2CC[C@@H](OCCCCc3cn(CCOCCOCCOCCOCCOCCOCCOCCOCCC(=O)NCCCCn4ncc5c(N)ncnc54)nn3)[C@H](OC)C2)CC(=O)[C@H](C)/C=C(\\C)[C@@H](O)[C@@H](OC)C(=O)[C@H](C)C[C@H](C)/C=C/C=C/C=C/1C")
"> 1000 nM"

Please examine the following record next.
// recorded IC50 for CO[C@H]1C[C@@H]2CC[C@@H](C)[C@@](O)(O2)C(=O)C(=O)N2CCCC[C@H]2C(=O)O[C@H]([C@H](C)C[C@@H]2CC[C@H](n3cc(COC(=O)NCCOCCOCCOCCC(=O)NCCOCCOCCOCCOCCC(=O)NCCCCn4nc(-c5cc6cc(O)ccc6[nH]5)c5c(N)ncnc54)nn3)[C@H](OC)C2)CC(=O)[C@H](C)/C=C(\C)[C@@H](O)[C@@H](OC)C(=O)[C@H](C)C[C@H](C)/C=C/C=C/C=C/1C : 31.6 to 1000 nM

Each recorded value in this set is attributed to patent US20230093861A1.
